- Tested on: PBMC
- measurement-notes: Anti-inflammatory activity in human PBMC assessed as inhibition of LPS-induced TNFalpha production after 24 hrs by ELISA
- Assay type: functional, cell-based
endpoint-label: log10 IC50 (log10 of the value in µM)
All values: log10 IC50 [µM].

- compound: "N=C(N)Nc1cc(-c2ccccc2)ccn1"
  log10 IC50: 0.08
- compound: "N=C(N)Nc1ccc(-c2cccc(Cl)c2)cn1"
  log10 IC50: 0.74
- compound: "N=C(N)Nc1cccc(-c2ccccc2)n1"
  log10 IC50: 1.27
- compound: "COc1ccc(C2CNC(=O)C2)cc1OC1CCCC1 (configuration not stated)"
  log10 IC50: -0.89
- compound: "NC1=Nc2cc(-c3ccccc3)ccc2CN1"
  log10 IC50: 0.00

Q) Tell me reported log10 IC50 for N=C(N)Nc1cccc(-c2ccccc2Cl)n1 , tested with PBMC.
A) 1.28

Q) Tell me reported log10 IC50 for COc1ccccc1-c1ccc(NC(=N)N)nc1 , tested with PBMC.
A) 0.89

###

- measurement-notes: Cytotoxicity against human PBMC assessed as cell viability at 10 um after 24 hrs by WST-1 assay relative to control
- Assay type: cell-based
- details: PBMC (peripheral blood mononuclear cells), read-out: Activity
Each entry below carries its reported viability at 24 h, 10 µM.
Numeric answer only, unit % assumed.

Sample answers from the record:
- chemical-smiles: "N=C(N)Nc1cc(-c2ccc(C(F)(F)F)cc2)ccn1"
  endpoint-label: "viability at 24 h, 10 µM"
  numeric-result: 24
- chemical-smiles: "Nc1nc2ccc(-c3ccccc3)cc2[nH]1"
  endpoint-label: "viability at 24 h, 10 µM"
  numeric-result: 114

Q) Reported viability at 24 h, 10 µM, compound NC(=S)Nc1cc(-c2ccccc2)ccn1 : ____
A) 86

###

- measurement-notes: Cytotoxicity against human PBMC assessed as cell viability at 10 um after 24 hrs by WST-1 assay relative to control
- Type: cell-based
- details: PBMC (peripheral blood mononuclear cells), read-out: Activity
Each entry below carries its reported viability at 24 h, 10 µM.
Numeric answer only, unit % assumed.

Sample answers from the record:
- molecule: "COc1ccccc1-c1ccnc(NC(=N)N)c1"
  numeric-result: 99
- molecule: "N=C(N)Nc1ncccc1-c1ccccc1"
  numeric-result: 108
- molecule: "N=C(N)Nc1cccc(-c2ccccc2Cl)n1"
  numeric-result: 74
- molecule: "COc1ccc(-c2ccc(NC(=N)N)nc2)cc1"
  numeric-result: 34
- molecule: "COc1ccccc1-c1ccc(NC(=N)N)nc1"
  numeric-result: 78
- molecule: "N=C(N)Nc1cccc(-c2cccc(Cl)c2)n1"
  numeric-result: 40

Q) Reported viability at 24 h, 10 µM, molecule N=C(N)Nc1ccc(-c2ccccc2)cn1 : ____
A) 97

Q) Reported viability at 24 h, 10 µM, molecule COc1ccccc1-c1cccc(NC(=N)N)n1 : ____
A) 106

Q) Reported viability at 24 h, 10 µM, molecule N=C(N)Nc1ccc(-c2cccc(Cl)c2)cn1 : ____
A) 94

Q) Reported viability at 24 h, 10 µM, molecule NC1=Nc2cccc(-c3ccccc3)c2CN1 : ____
A) 111

Q) Reported viability at 24 h, 10 µM, molecule COc1ccc(-c2ccnc(NC(=N)N)c2)cc1 : ____
A) 34

Q) Reported viability at 24 h, 10 µM, molecule COc1ccc(C2CNC(=O)C2)cc1OC1CCCC1 (stereo not drawn) : ____
A) 104

Q) Reported viability at 24 h, 10 µM, molecule COc1cccc(-c2ccc(NC(=N)N)nc2)c1 : ____
A) 116

Q) Reported viability at 24 h, 10 µM, molecule NC1=Nc2ccc(-c3ccccc3)cc2CN1 : ____
A) 90
